Listing of entries alongside the reported IFNAR1 FC.
tested on: differentiated THP1 macrophages (WT); details: Table S3; THP-1, 12 h
Structures can show the parent of a compound that is named as a salt.

| COMPOUND | IFNAR1 FC |
| --- | --- |
| COC(=O)/C=C/C(=O)OC [DMF, dimethyl fumarate] | 0,95 fold |
| Cc1cc2c(cc1C(CC(=O)O)c1ccc3ccc(OCC(=O)NC4CCCCCC4)cc3c1)OCO2 (stereo not drawn) [Compound 24] | 0,93 fold |
| C[S+]([O-])CCCCN=C=S (stereo not drawn) [SFN, sulforaphane] | 0,88 fold |
| COC(=O)[C@]12CCC(C)(C)C[C@H]1[C@H]1C(=O)C=C3[C@@]4(C)C=C(C#N)C(=O)C(C)(C)[C@@H]4CC[C@@]3(C)[C@]1(C)CC2 [CDDO-Me, bardoxolone methyl] | 0,82 fold |
| Cc1cc2c(cc1C(CC(=O)O)c1ccc3ccc(OCC(=O)NC4CCCCCC4)cc3c1)OCCO2 (stereo not drawn) [Compound 28] | 0,92 fold |

From here, focus on the item given below.
Please supply the value of reported IFNAR1 FC for the item COc1cc([C@@H](CC(=O)O)c2ccc(C)c(CN3C[C@@H](C)Oc4ccccc4S3(=O)=O)c2)cc2nnn(C)c12 [KI-696]
0,90 fold

---

Listing of entries alongside the reported IFNGR2 FC.
system: differentiated THP1 macrophages (WT); settings: Table S3; THP-1, 12 h
Counter-ions that a name gives are not always drawn.

| COMPOUND | IFNGR2 FC |
| --- | --- |
| Cc1cc2c(cc1C(CC(=O)O)c1ccc3ccc(OCC(=O)NC4CCCCCC4)cc3c1)OCO2 (stereo not drawn) | 0,73 fold |
| COC(=O)/C=C/C(=O)OC [DMF, dimethyl fumarate] | 0,78 fold |
| Cc1cc2c(cc1C(CC(=O)O)c1ccc3ccc(OCC(=O)NC4CCCCCC4)cc3c1)OCCO2 (stereo not drawn) | 0,76 fold |
| COC(=O)[C@]12CCC(C)(C)C[C@H]1[C@H]1C(=O)C=C3[C@@]4(C)C=C(C#N)C(=O)C(C)(C)[C@@H]4CC[C@@]3(C)[C@]1(C)CC2 | 0,41 fold |
| COc1cc([C@@H](CC(=O)O)c2ccc(C)c(CN3C[C@@H](C)Oc4ccccc4S3(=O)=O)c2)cc2nnn(C)c12 | 0,91 fold |

From here, focus on the item given below.
Please supply the value of reported IFNGR2 FC for the item C[S+]([O-])CCCCN=C=S (stereo not drawn)
0,58 fold

---

test system: differentiated THP1 macrophages (WT); conditions: Table S3; THP-1, 12 h
Structures can show the parent of a compound that is named as a salt.
MEASURE: SOD1 FC

Examples with their reported SOD1 FC follow.
| COMPOUND | MEASURE | RESULT |
| --- | --- | --- |
| COc1cc([C@@H](CC(=O)O)c2ccc(C)c(CN3C[C@@H](C)Oc4ccccc4S3(=O)=O)c2)cc2nnn(C)c12 [KI-696] | SOD1 FC | 1,75 fold |
| COC(=O)/C=C/C(=O)OC [DMF, dimethyl fumarate] | SOD1 FC | 1,73 fold |

From here, focus on the item given below.
Please supply the value of reported SOD1 FC for the item C[S+]([O-])CCCCN=C=S (stereo not drawn) [SFN, sulforaphane]
2,16 fold
